Provenance of the data: patent US20220265629A1

# PROCEDURE_DETAILS: Single ascending oral dose study in healthy volunteers: plasma pharmacokinetics
# Type: in vivo, human
# ASSAY_SETUP: human, plasma, oral, 350 mg; read-out: Half-Life Lambda Z, Mean (converted)
READOUT_LABEL: half-life

**Query** Report half-life for `Cn1cc(S(=O)(=O)[C@@](C)(F)C2CCN(C(=O)Nc3ccon3)CC2)c(C(F)F)n1` please.
**Result** 14.7 h

----------
# PROCEDURE_DETAILS: Pharmacokinetics in beagle dogs (single doses)
# Type: in vivo
# ASSAY_SETUP: beagle, dog, plasma; oral 10 mg/kg, micronized (Dv50=3.2 μm); read-out: bioavailability
READOUT_LABEL: bioavailability

**Query** Report bioavailability for `Cn1cc(S(=O)(=O)[C@@](C)(F)C2CCN(C(=O)Nc3ccon3)CC2)c(C(F)F)n1` please.
**Result** > 100%

----------
# PROCEDURE_DETAILS: Single ascending oral dose study in healthy volunteers: plasma pharmacokinetics
# Format: in vivo, human
# ASSAY_SETUP: human, plasma, oral, 175 mg, 24 Hours Postdose; 175 mg; read-out: Plasma concentration, Geometric Mean
READOUT_LABEL: concentration at 24 h (ng/mL)
Give the value, in units of ng/mL, as a plain number.

**Query** Report concentration at 24 h for Cn1cc(S(=O)(=O)[C@@](C)(F)C2CCN(C(=O)Nc3ccon3)CC2)c(C(F)F)n1 [Compound I] please.
**Result** 650

----------
# PROCEDURE_DETAILS: Single ascending oral dose study in healthy volunteers: plasma pharmacokinetics
# Assay type: in vivo, human
# ASSAY_SETUP: human, plasma, oral, 3 mg; read-out: AUC0-last, Mean
READOUT_LABEL: AUC(0-t) (ng·h/mL)
Give the value, in units of ng·h/mL, as a plain number.

**Query** Report AUC(0-t) for `Cn1cc(S(=O)(=O)[C@@](C)(F)C2CCN(C(=O)Nc3ccon3)CC2)c(C(F)F)n1` please.
**Result** 721

----------
# PROCEDURE_DETAILS: Single ascending oral dose study in healthy volunteers: plasma pharmacokinetics
# Type: in vivo, human
# ASSAY_SETUP: human, plasma, oral, 3 mg, 6 Hours Postdose; 3 mg; read-out: Plasma concentration, Median
READOUT_LABEL: concentration at 6 h (ng/mL)
Give the value, in units of ng/mL, as a plain number.

**Query** Report concentration at 6 h for Cn1cc(S(=O)(=O)[C@@](C)(F)C2CCN(C(=O)Nc3ccon3)CC2)c(C(F)F)n1 [Compound I] please.
**Result** 33.5

----------
# PROCEDURE_DETAILS: Single ascending oral dose study in healthy volunteers: plasma pharmacokinetics
# Format: in vivo, human
# ASSAY_SETUP: human, plasma, oral, 10 mg; read-out: Cmax, Mean
READOUT_LABEL: Cmax
Answer by giving the amount and then stating its unit.

**Query** Report Cmax for Cn1cc(S(=O)(=O)[C@@](C)(F)C2CCN(C(=O)Nc3ccon3)CC2)c(C(F)F)n1 [Compound I] please.
**Result** 139 ng/mL

----------
# PROCEDURE_DETAILS: Single ascending oral dose study in healthy volunteers: plasma pharmacokinetics
# Format: in vivo, human
# ASSAY_SETUP: human, plasma, oral, 350 mg; read-out: Tmax, Mean
READOUT_LABEL: Tmax (h)
Give the value, in units of h, as a plain number.

**Query** Report Tmax for `Cn1cc(S(=O)(=O)[C@@](C)(F)C2CCN(C(=O)Nc3ccon3)CC2)c(C(F)F)n1` please.
**Result** 4.95

----------
# PROCEDURE_DETAILS: Food effect cross-over study, 200 mg (25 mg tablets), healthy volunteers: plasma pharmacokinetics
# Format: in vivo, human
# ASSAY_SETUP: human, plasma, po, single 200 mg oral dose, Fasted (N = 10), read-out: Cmax, Median
READOUT_LABEL: Cmax (ng/mL)
Give the value, in units of ng/mL, as a plain number.

**Query** Report Cmax for Cn1cc(S(=O)(=O)[C@@](C)(F)C2CCN(C(=O)Nc3ccon3)CC2)c(C(F)F)n1 [Compound I] please.
**Result** 2400

----------
# PROCEDURE_DETAILS: Single ascending oral dose study in healthy volunteers: plasma pharmacokinetics
# Assay type: in vivo, human
# ASSAY_SETUP: human, plasma, oral, 350 mg; read-out: Cmax, Median
READOUT_LABEL: Cmax
Answer by giving the amount and then stating its unit.

**Query** Report Cmax for `Cn1cc(S(=O)(=O)[C@@](C)(F)C2CCN(C(=O)Nc3ccon3)CC2)c(C(F)F)n1` please.
**Result** 2900 ng/mL

----------
# PROCEDURE_DETAILS: Single ascending oral dose study in healthy volunteers: plasma pharmacokinetics
# Assay type: in vivo, human
# ASSAY_SETUP: human, plasma, oral, 100 mg; read-out: AUC0-last, Median
READOUT_LABEL: AUC(0-t) (ng·h/mL)
Give the value, in units of ng·h/mL, as a plain number.

**Query** Report AUC(0-t) for `Cn1cc(S(=O)(=O)[C@@](C)(F)C2CCN(C(=O)Nc3ccon3)CC2)c(C(F)F)n1` please.
**Result** 22400

----------
# PROCEDURE_DETAILS: Single ascending oral dose study in healthy volunteers: plasma pharmacokinetics
# Assay type: in vivo, human
# ASSAY_SETUP: human, plasma, oral, 350 mg; read-out: AUC0-last, Mean
READOUT_LABEL: AUC(0-t) (ng·h/mL)
Give the value, in units of ng·h/mL, as a plain number.

**Query** Report AUC(0-t) for `Cn1cc(S(=O)(=O)[C@@](C)(F)C2CCN(C(=O)Nc3ccon3)CC2)c(C(F)F)n1` please.
**Result** 76300

----------
# PROCEDURE_DETAILS: Single ascending oral dose study in healthy volunteers: plasma pharmacokinetics
# Format: in vivo, human
# ASSAY_SETUP: human, plasma, oral, 100 mg, 24 Hours Postdose; 100 mg; read-out: Plasma concentration, Mean
READOUT_LABEL: concentration at 24 h

**Query** Report concentration at 24 h for `Cn1cc(S(=O)(=O)[C@@](C)(F)C2CCN(C(=O)Nc3ccon3)CC2)c(C(F)F)n1` please.
**Result** 0.384 µg/mL

----------
# PROCEDURE_DETAILS: Single ascending oral dose study in healthy volunteers: plasma pharmacokinetics
# Format: in vivo, human
# ASSAY_SETUP: plasma, oral; 1-compartmental model analysis of in vivo data in human; read-out: CL (Human)
READOUT_LABEL: clearance (mL/min/kg)
Give the value, in units of mL/min/kg, as a plain number.

**Query** Report clearance for `Cn1cc(S(=O)(=O)[C@@](C)(F)C2CCN(C(=O)Nc3ccon3)CC2)c(C(F)F)n1` please.
**Result** 0.949

----------
# PROCEDURE_DETAILS: Single ascending oral dose study in healthy volunteers: plasma pharmacokinetics
# Format: in vivo, human
# ASSAY_SETUP: human, plasma, oral, 3 mg, 24 Hours Postdose; 3 mg; read-out: Plasma concentration, Geometric Mean
READOUT_LABEL: concentration at 24 h (ng/mL)
Give the value, in units of ng/mL, as a plain number.

**Query** Report concentration at 24 h for `Cn1cc(S(=O)(=O)[C@@](C)(F)C2CCN(C(=O)Nc3ccon3)CC2)c(C(F)F)n1` please.
**Result** 11

----------
# PROCEDURE_DETAILS: Single ascending oral dose study in healthy volunteers: plasma pharmacokinetics
# Assay type: in vivo, human
# ASSAY_SETUP: human, plasma, oral, 100 mg; read-out: Mean Residence Time, Median
READOUT_LABEL: MRT (h)
Give the value, in units of h, as a plain number.

**Query** Report MRT for `Cn1cc(S(=O)(=O)[C@@](C)(F)C2CCN(C(=O)Nc3ccon3)CC2)c(C(F)F)n1` please.
**Result** 20.4

----------
# PROCEDURE_DETAILS: HFrEF study Part 1 (SAD Cohorts 1 and 2): plasma pharmacokinetics
# Assay type: in vivo, human
# ASSAY_SETUP: human, plasma, oral, 550 mg, SAD Cohort 1, Split dose 550 mg (n = 2)
READOUT_LABEL: Tmax (h)
Give the value, in units of h, as a plain number.

**Query** Report Tmax for `Cn1cc(S(=O)(=O)[C@@](C)(F)C2CCN(C(=O)Nc3ccon3)CC2)c(C(F)F)n1` please.
**Result** 8.93

----------
# PROCEDURE_DETAILS: Food effect cross-over study, 200 mg (25 mg tablets), healthy volunteers: plasma pharmacokinetics
# Type: in vivo, human
# ASSAY_SETUP: human, plasma, po, single 200 mg oral dose, Fasted (N = 10), read-out: T1/2, z, Mean (converted)
READOUT_LABEL: half-life (min)
Give the value, in units of min, as a plain number.

**Query** Report half-life for `Cn1cc(S(=O)(=O)[C@@](C)(F)C2CCN(C(=O)Nc3ccon3)CC2)c(C(F)F)n1` please.
**Result** 857
